- Test system: human hepatocytes
- Experimental Protocol: Human Hepatocyte Stability Assay
- Assay type: in vitro ADME
- Measurement Conditions: predicted hepatocyte clearance, human hepatocytes, 1 μM compound
Measured Metric: Hheps CL (mL/min/kg)
The figure you give is taken to be in mL/min/kg; do not add the unit.

                              smiles_record  measured_metric  numeric_readout
0  Cc1ncc(-c2cn3ccnc3c(Nc3ccc(N4CCN(C5COC5)CC4)cc3)n2)nc1N         Hheps CL                2
1  Nc1cncc(-c2cn3ccnc3c(Nc3ccc(N4CCO[C@@H](CO)C4)cc3)n2)n1         Hheps CL              1.5

# context switch: different molecule, same Hheps CL
So what does the record say about Hheps CL for Nc1cncc(-c2cn3ccnc3c(Nc3ccc(N4CCN(C5COC5)CC4)cc3)n2)n1 ? 0.917
